assay: qHTS Assay for Lipid Storage Modulators: S3 Assay against Probe and Analogs; conditions: Drosophila S3 cells, BODIPY lipid droplet fluorescence, 18-24 h, oleic acid added to induce droplets; series mostly up to 46.1 µM
Records with an inconclusive call do not appear. Activity calls are given as the source filed them. Calls follow the shape of the dose curve; as a rule, active = well fitted inhibition curve with a large enough effect; inconclusive = small, poorly fitted or top-dose-only effect; inactive = no such curve, though single readings can be large or run the other way.
Labels: label 1 (active), label 0 (inactive)

{"columns": ["COMPOUND", "CAT"],
 "data": [
  ["O=C(NC1CCCc2c1cnn2-c1ccc(O)cc1)c1ccccn1 (stereo not drawn)", "label 1"],
  ["O=C(NC1CCCc2c1cnn2-c1ccc(F)cc1F)c1ccncc1 (stereo not drawn)", "label 0"],
  ["CCOc1ccc(CCNC(=O)c2cccs2)cc1OCC", "label 0"]
]}
